Target: hHER3 full length (human, UniProt P21860 20-1342)
Experiment: cell-based or functional assay
Quantity Name: IC50, HRG1-β1 induced pHER3, MDA-MB468

17C08 (VHH, also called 17C8) VHH: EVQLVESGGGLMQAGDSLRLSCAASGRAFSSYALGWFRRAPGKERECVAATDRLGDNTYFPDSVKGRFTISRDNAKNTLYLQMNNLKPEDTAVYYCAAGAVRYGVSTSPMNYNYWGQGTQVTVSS ... 5.38e-08 M
18F05 (VHH, also called 18F5) VHH: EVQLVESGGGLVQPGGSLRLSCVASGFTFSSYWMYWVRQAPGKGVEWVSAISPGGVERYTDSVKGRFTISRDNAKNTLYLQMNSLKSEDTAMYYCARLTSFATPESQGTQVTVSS ... 1.8e-08 M
34A04 (VHH) VHH: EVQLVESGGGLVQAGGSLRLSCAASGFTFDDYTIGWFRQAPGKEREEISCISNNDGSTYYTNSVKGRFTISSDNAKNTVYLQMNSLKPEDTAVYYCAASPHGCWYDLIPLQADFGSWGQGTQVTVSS ... 2.2e-08 M
18B05 (VHH) VHH: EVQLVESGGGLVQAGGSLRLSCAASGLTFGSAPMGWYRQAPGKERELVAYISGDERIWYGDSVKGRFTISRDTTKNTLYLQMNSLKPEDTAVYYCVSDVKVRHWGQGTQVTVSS ... 3e-08 M
34C07 (VHH, c-myc, His6-tagged form as expressed; also called 34C7; HER3MS34C07) VHH: EVQLVESGGGLVQPGGSLGLSCVASGSIFRINAMAWYRQAPGKQRELVAEITAGGSTNYADSVKGRFTISVDNAWNTLYLQMNSLKVEDTAVYYCNLDHYTTWDRRSAYWGQGTQVTVSS ... 1.07e-08 M
17E08 (VHH) VHH: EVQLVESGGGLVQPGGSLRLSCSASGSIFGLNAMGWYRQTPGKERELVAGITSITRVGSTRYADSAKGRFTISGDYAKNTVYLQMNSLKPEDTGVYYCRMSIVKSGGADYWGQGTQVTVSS ... 2.46e-08 M
21F06 (VHH, c-myc, His6-tagged form as expressed; also called 21F6; HER3MS21F06) VHH: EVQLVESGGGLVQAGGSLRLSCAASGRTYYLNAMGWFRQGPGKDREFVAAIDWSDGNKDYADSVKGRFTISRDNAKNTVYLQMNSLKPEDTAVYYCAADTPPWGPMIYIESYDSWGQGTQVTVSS ... 7.94e-09 M
23F05 (VHH) VHH: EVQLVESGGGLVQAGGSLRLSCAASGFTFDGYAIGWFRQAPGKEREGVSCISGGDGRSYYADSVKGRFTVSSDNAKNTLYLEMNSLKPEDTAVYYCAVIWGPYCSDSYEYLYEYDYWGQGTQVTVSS ... 2.41e-08 M
05A09 (VHH) VHH: EVQLVESGGGLVQAGGSLRLSCAASGFTFDDYAIGWFRQAPGKEREGVSCISSSDGSTVYADSVKGRFTISSDNAKNTVYLQMNSLKPEDTAVYYCAAERRRGYSDLCRFYYGMDYWGKGTQVTVSS ... 1.28e-07 M
18G11 (VHH, c-myc, His6-tagged form as expressed; also called HER3MS18G11; HER3MS018G11) VHH: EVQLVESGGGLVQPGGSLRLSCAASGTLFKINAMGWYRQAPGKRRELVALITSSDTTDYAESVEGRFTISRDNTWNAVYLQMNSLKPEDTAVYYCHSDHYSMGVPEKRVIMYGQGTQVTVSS ... 7.03e-09 M

Reference source for all entries: patent US20130136748A1
